# System: SK-OV-3 ovarian
# ASSAY EXPLANATION: NCI tumour cell line growth inhibition, 48 h

{"columns": ["COMPOUND", "TGI"],
 "data": [
  ["C/C(=C/CNc1ncnc2c1ncn2CCC#N)CO", "> 100 µM"],
  ["CCC[CH2][Sn]([CH2]CCC)([S]C1=NCCS1)[S]C1=NCCS1", "3.31 µM"],
  ["CN1CCN(Cc2ccc(NC(=O)c3cncc(C#Cc4c(N)ncc5cc(F)ccc45)c3)cc2C(F)(F)F)CC1", "13 µM"],
  ["CCOC(=O)/C=C1\\Nc2ccccc2-n2nnnc21", "> 100 µM"],
  ["O=S1c2ccc(Cl)cc2CC(SSC2Cc3cc(Cl)ccc3S(=O)c3ccccc32)c2ccccc21 (stereo not given)", "> 100 µM"],
  ["O=C(/C=C/c1ccccc1)CCC1C(=O)NC(=O)NC1=O", "> 100 µM"],
  ["O=C(Nc1ccc(Br)c(Cl)c1)c1cc(F)ccc1O", "3.79 µM"],
  ["CCOn1cc(C2=C(c3c[nH]c4ccccc34)C(=O)NC2=O)c2ccccc21", "0.735 µM"],
  ["O=C(NCC#CCO)C(F)(F)F", "> 100 µM"],
  ["Cc1cc(C)n(-c2c(O)ccc(O)c2-n2nc(C)cc2C)n1", "> 100 µM"],
  ["COC(=O)N/N=C(\\C)C(CN1CCOCC1)C(c1ccccc1)c1cc2ccccc2oc1=O (stereo not given)", "> 100 µM"],
  ["Nc1nc(N)c(-c2ccc(Cl)cc2)c(CCC(=O)Nc2cccc(C(F)(F)F)c2)n1", "> 100 µM"],
  ["C=C(Cl)C(Br)(CBr)CCC(Br)C(C)(C)Br (stereo not given)", "> 10 µM"],
  ["O=C1OC2(c3ccc(O)cc3Oc3cc(O)ccc32)c2c1c(-c1ccccc1)c(-c1ccccc1)c(-c1ccccc1)c2-c1ccccc1", "> 100 µM"],
  ["C/C(=C\\COP(=O)(O)OP(=O)(O)O)CC/C=C(\\C)CNc1ccc([N+](=O)[O-])cc1", "> 100 µM"],
  ["CCn1c(SCC(=O)NNC(=S)Nc2ccc(F)cc2)nc2ccccc2c1=O", "> 100 µM"],
  ["O=C(Cn1ccnc1[N+](=O)[O-])NCC(F)(F)C(F)(F)F", "> 100 µM"],
  ["Nc1nncs1", "928 µM"],
  ["Cc1n[nH]c(=O)n1/N=C/c1cccnc1", "> 100 µM"],
  ["CO[C@H](C(=O)N[C@@H](CCCCNC(=O)OCc1ccccc1)C(=O)OC(C)(C)C)[C@@H]1Cc2cc3cc(OC4CC(OC5CC(O)C(O)C(C)O5)C(O)C(C)O4)c(C)c(O)c3c(O)c2C(=O)[C@H]1OC1CC(OC2CC(OC3CC(C)(O)C(O)C(C)O3)C(O)C(C)O2)C(O)C(C)O1 (stereo not given in full)", "2.81 µM"],
  ["COc1ccccc1N1C(=O)/C(=C\\c2cc(OC)c(OC)c(OC)c2)S(=O)(=O)C1c1ccccc1 (stereo not given)", "76.5 µM"],
  ["Cc1ncc([N+](=O)[O-])n1CCNC(=O)CCn1ccnc1[N+](=O)[O-]", "> 100 µM"],
  ["COc1cc2c3c(c4cc(OC)c(OC)cc4c2cc1OC)[C@H](O)[C@@H]1CCCN1C3", "1.69 µM"],
  ["CC1(C)OC(=O)CC12CCN(Cc1ccccc1)CC2", "> 100 µM"],
  ["Cc1ccc(S(=O)(=O)n2cc(C(=O)C(=O)Nc3ccncc3)c3ccccc32)cc1", "71.2 µM"],
  ["O=C1c2ccccc2C(=O)c2nc(-c3ccccc3)c(-c3ccccc3)nc21", "> 100 µM"],
  ["Cc1ccc2[nH]c(=O)c(C(C#N)c3ccccc3)nc2c1 (stereo not given)", "> 100 µM"],
  ["CC(C)(O)[C@H]1[C@@H]2OC(=O)[C@H]1[C@]1(O)C[C@H]3OC34C(=O)O[C@H]2[C@@]41C (stereo not given in full) (tested in a mixture with another compound)", "> 100 µM"],
  ["CN(CCO)c1nc2c(c(=O)[nH]1)CNCC2", "> 100 µM"],
  ["COc1ccc(C(=O)N2CCN(c3ccc4[nH]c(=O)oc4c3)CC2)cc1", "> 100 µM"]
]}
